# Tested on: gene editing with dCas9
# protocol_notes: Screen of 322 new SSAP proteins, gene editing activity with dCas9 (Table 5)
# Format: cell-based
# run_parameters: normalized
# maps each entry to its dCas9 with SSAP activity (normalized)

# molecule, dCas9 with SSAP activity (normalized)
measured = [
    ("SSAP_305: SEQ ID NO: 474 in b312 (Table 9 prints 424); Clostridium akagii (protein, listed as Clostridium akagii) ATSESLKNQLVNKETRPPKDPFKALVYSAGIKKRFEDMLDKQANGFITSLLNLKQDKLKSCDDFTVLGSALKAAALKLPIDPNLGFAWIIPFKNHGKLEAQFQIGYKGFIQMAQRSGQYKKLNVTEIYEGQLKSFNPLTEEIVLDLDNIKSDLRKINKRYLIVMRMNLLALHLRKISKG", "−1.721"),
]

Could you now look at the following molecule, please?
State the recorded dCas9 with SSAP activity (normalized) for this entry: SSAP_294: SEQ ID NO: 463; Parageobacillus thermoglucosidasius (protein, listed as Parageobacillus thermoglucosidasius) AKQADLKNKLANKNSTNPTAYLKNLVYAPTVQQKFKEVLKEKAAHFLTSLISLVDSSPDLQKCNPMTIIASAMKAATLELPIDKNLGYAWIVPYKNVATFQIGYKGYIQLALRTGLYRSINVIEVYEGELRKWNRLTEELDIDEGARKSDHVIGYAGYFELTNGFIKRVYWSKEDIERHRKKFAKSDFGWENNYDAMAKKTVLRNMLSKWGILSIDMQRAYVNDIDDPEQTKEVIDVEWSEIIEEANVANSPEQQEIVFEQ
−1.096
